Below are Ki values recorded for A1-adenosine receptors (Rattus norvegicus).
endpoint.name: Ki (nM)

CCCn1c(=O)c2[nH]c(-c3ccc(OCC(=O)NCCNC(=S)Nc4cc(N=C=S)cc(C(=O)NCCNC(=O)CCCC[C@@H]5SC[C@@H]6NC(=O)N[C@@H]65)c4)cc3)nc2n(CCC)c1=O [R' = CONH(CH2)2 NHCO-biotin] :: 20.1
CCCn1c(=O)c2[nH]c(-c3ccc(OCC(=O)NCCNC(=S)Nc4cc(N=C=S)cc(NC(=S)NCCN(C)C)c4)cc3)nc2n(CCC)c1=O [Compound 24] :: 77.2
CCCn1c(=O)c2[nH]c(-c3ccc(OCC(=O)NCCNC(=S)Nc4cc(N=C=S)cc(C(=O)NCCNC(C)=O)c4)cc3)nc2n(CCC)c1=O [Compound 16] :: 7.01
CCCn1c(=O)c2[nH]c(-c3ccc(OCC(=O)NCCNC(=S)Nc4cc(N=C=S)cc(C(=O)NCCN(C)C)c4)cc3)nc2n(CCC)c1=O [Compound 14] :: 7.62
CCCn1c(=O)c2[nH]c(-c3ccc(OCC(=O)NCCNC(=S)Nc4cc(N=C=S)cc(NC(=S)NCC(=O)OC(C)(C)C)c4)cc3)nc2n(CCC)c1=O :: 8.3
CCCn1c(=O)c2[nH]c(-c3ccc(OCC(=O)NCCNC(=S)Nc4cccc(N=C=S)n4)cc3)nc2n(CCC)c1=O [Compound 8] :: 16.2
CCCn1c(=O)c2[nH]c(-c3ccc(OCC(=O)NCCNC(=S)Nc4cccc(N=C=S)c4)cc3)nc2n(CCC)c1=O [Compound 7] :: 2.39
CCCn1c(=O)c2[nH]c(-c3ccc(OCC(=O)NCCNC(=S)Nc4cc(N=C=S)cc(NC(=S)NCCNC(=S)Nc5ccc(C(=O)O)c(-c6c7ccc(=O)cc-7oc7cc(O)ccc67)c5)c4)cc3)nc2n(CCC)c1=O [R' = NHCSNH(CH2)2 NHCSNH-fluorescein] :: 234
CCCn1c(=O)c2[nH]c(-c3ccc(OCC(=O)NCCNC(=S)Nc4cc(N=C=S)cc(C(=O)OC(=O)c5cc(N=C=S)cc(N=C=S)c5)c4)cc3)nc2n(CCC)c1=O :: 45
CCCn1c(=O)c2[nH]c(-c3ccc(OCC(=O)NCCNC(=S)Nc4cc(N=C=S)cc(N=C=S)c4)cc3)nc2n(CCC)c1=O [Compound 23] :: 3.96
CCCn1c(=O)c2[nH]c(-c3ccc(OCC(=O)NCCNC(=S)Nc4cc(N=C=S)cc(C(=O)NCCNc5ccc([N+](=O)[O-])c6nonc56)c4)cc3)nc2n(CCC)c1=O [R' = CONH(CH2)2 NH-NBD] :: 18.1
CCCn1c(=O)c2[nH]c(-c3ccc(OCC(=O)NCCNC(=S)Nc4cc(N=C=S)cc(NC(=S)NCCNc5ccc(N=[N+]=[N-])cc5[N+](=O)[O-])c4)cc3)nc2n(CCC)c1=O :: 27.3
CCCn1c(=O)c2[nH]c(-c3ccc(OCC(=O)NCCNC(=S)Nc4cc(N=C=S)cc(C(=O)NCCNC(=O)CCc5ccc(O)cc5)c4)cc3)nc2n(CCC)c1=O [Compound 17] :: 7.08

Data origin: patent US5310916A
